assay_name: Water solubility of peptides
Assay type: physicochemical
Square brackets hold non-standard residues; d marks the D form. Peptide text beside a SMILES is read from it. AEEA = NCCOCCOCC(=O)O
reported_property: solubility

Item under review: NCCOCCOCC(=O)NCCOCCOCC(=O)NCCOCCOCC(=O)NCCOCCOCC(=O)N[C@@H](Cc1ccccc1)C(=O)N[C@@H](Cc1ccc(O)cc1)C(=O)N[C@@H](Cc1ccccc1)C(=O)N[C@@H](CS)C(=O)N[C@@H](Cc1ccccc1)C(=O)N[C@@H](Cc1ccc(O)cc1)C(=O)N[C@@H](Cc1ccccc1)C(N)=O [PEG8‐FYFCFYF] (H-[AEEA][AEEA][AEEA][AEEA]FYFCFYF-NH2) . Reported solubility?
~10000 µg/mL
